B1: TPR 5TU (parent)
chain: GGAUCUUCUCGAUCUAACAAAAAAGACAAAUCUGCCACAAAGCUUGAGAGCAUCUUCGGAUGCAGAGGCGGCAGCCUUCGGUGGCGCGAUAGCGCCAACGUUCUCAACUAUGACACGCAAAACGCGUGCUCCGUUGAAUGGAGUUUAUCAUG

variants of: B1; assay: polymerase ribozyme fitness, log enrichment relative to wild type (log ratio); higher = more active; in vitro selection for triplet polymerase activity
Variants at the floor of the assay were thinned out.

# VARIANT IDENTIFIER, polymerase ribozyme fitness (log ratio)
data = [
    ("C54U U61A G84U C108G G140U", "≤ -4.2"),
    ("C75G G81U G84C A137U U146C", "≤ -4.2"),
    ("A41C G46U C76A U102A C131G", "≤ -4.2"),
]
